Give measured Efficiency Ligand for each item. Keep answers brief.
biological target: GPR139 (Homo sapiens, UniProt Q6DWJ6); assay: GPR139 Agonist titration / agonist counterscreen assay (calcium detection, HEK-GPR139 cells); format: cell-based; set-up: expressed in transfected cells; host or cells: HEK Aequorin cells, Maxcyte transient transfection; settings: GPR139 Agonist Activity; ligand efficiency
One number for each entry.

>>> numeric_result("O=C(Cn1cc2c(n1)CCCCC2)NCCCc1ccccc1")
0.41
>>> numeric_result("C=C(CCc1cccc(CC)c1)C(C)C1CCC(Cc2ccccc2C)C1=C (centres unmarked)")
0.41

Batch of 3 compounds: report Efficiency Ligand for each.
1. O=C(NCc1csc(-c2cccs2)n1)C1CC(Cc2ccc3c(c2)OCO3)=NO1 (centres unmarked)
2. Cc1cc(C(=O)CCC(=O)NNC(=O)CSc2nc3ccccc3s2)c(C)s1
3. CC(NC(=O)CN1CCN(Cc2ccc(Cl)cc2)C1=O)c1ccccc1 (centres unmarked)

Ans:
0.32
0.39
0.36

* * *

molecular target: GPR139 (Homo sapiens, UniProt Q6DWJ6); experiment: GPR139 Agonist titration / agonist counterscreen assay (calcium detection, HEK-GPR139 cells); format: cell-based; design: expressed in transfected cells; host or cells: HEK Aequorin cells, Maxcyte transient transfection; settings: GPR139 Agonist Activity; based on logD
Give measured Lipophilic Efficiency (logD) for each item. Keep answers brief.
Give bare numbers.

Batch of 8 molecules: report Lipophilic Efficiency (logD) for each.
1. O=C(CSc1ccc(Cl)cc1)Nc1nnc(-c2ccco2)o1
2. O=C(Cn1ccc([N+](=O)[O-])n1)NCCc1ccc(Cl)cc1
3. CC(Oc1ccc(O)cc1Cl)C(=O)NNC(=O)c1cccc(F)c1 (centres unmarked)
4. Cc1c(Br)c([N+](=O)[O-])nn1CC(=O)NCCc1ccc(Cl)cc1
5. Cc1ccc2c(c1)CCCN2CC(=O)N(C)c1c(N)n(Cc2ccccc2)c(=O)[nH]c1=O
6. O=C(CSc1ccc(Cl)cc1)NNC(=O)c1ccc(O)cc1
7. C=CCC(O)(CC=C)C(C)NC(=O)CCC1(Cc2ccc3ccccc3c2)CCC(=O)N1 (centres unmarked)
8. O=C(Cn1nc(Cc2ccncc2)c2ccccc2c1=O)NC(O)CCc1ccccc1 (centres unmarked)

Ans:
[4.59, 5.86, 5.60, 4.08, 4.29, 5.31, 3.22, 4.27]

* * *

Give measured Hill Slope for each item. Keep answers brief.
biological target: GPR139 (Homo sapiens); assay: GPR139 Agonist titration / agonist counterscreen assay (calcium detection, HEK-GPR139 cells); format: cell-based; set-up: expressed in transfected cells; host or cells: HEK Aequorin cells, Maxcyte transient transfection; details: GPR139 Agonist Activity

>>> result("CCCCC(=O)OCC(=O)NCc1ccc(C)cc1")
1.40

Batch of 2 molecules: report Hill Slope for each.
1. CCCCCCC(=O)NNC(=O)c1c(O)c2ccccc2n(CCC)c1=O
2. O=C(Cn1ccc2ccccc21)NCCCC(=O)Nc1cccc2cccnc12

Ans:
1.91
0.38

Batch of 2 molecules: report Hill Slope for each.
1. CCn1c2ccccc2c2cc(C3C(C#N)=C(N)Oc4n[nH]c(C)c43)ccc21 (centres unmarked)
2. CC(C)CCNC(=O)CN1CCN(Cc2ccc(F)cc2Cl)C1=O

Ans:
1.13
1.12

* * *

tested on: parental HEK cells; assay: HEK parental Agonist Counterscreen Assay (non-transfected cells); format: cell-based; settings: HEK Agonist Activity
Classification field: enter t for Lipophilic Efficiency (logP) values not below 2, f for values below it.

Consider the following illustrative entries.
>>> group("O=C(CC(C(=O)N1CCc2ccccc21)n1ccnc1)NCC1COc2ccccc2O1 (stereo not drawn)")
"t"
>>> group("Cc1ccc(C)c(C(=O)CCC(=O)NNC(=O)c2cc(C)oc2C)c1")
"t"
>>> group("Cc1c(Br)c([N+](=O)[O-])nn1CC(=O)NCCc1ccc(Cl)cc1")
"f"

Switching to the query record.
Q: Quick check, Lipophilic Efficiency (logP) >= 2? `Cn1cnnc1SCc1ccc(F)c2ccccc12`
Ans: f

* * *

Molecular target: GPR139 (Homo sapiens, UniProt Q6DWJ6)
Sequence (Q6DWJ6 1-353): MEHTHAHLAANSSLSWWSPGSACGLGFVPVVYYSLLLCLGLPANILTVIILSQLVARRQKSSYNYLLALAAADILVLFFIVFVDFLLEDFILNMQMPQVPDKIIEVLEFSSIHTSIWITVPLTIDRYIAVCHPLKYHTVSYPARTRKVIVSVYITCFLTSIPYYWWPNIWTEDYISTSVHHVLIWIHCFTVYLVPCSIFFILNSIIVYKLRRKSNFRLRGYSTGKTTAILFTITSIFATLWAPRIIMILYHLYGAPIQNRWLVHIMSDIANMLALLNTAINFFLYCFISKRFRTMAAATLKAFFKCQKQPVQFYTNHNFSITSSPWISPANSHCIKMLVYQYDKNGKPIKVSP
Test: GPR139 Agonist titration / agonist counterscreen assay (calcium detection, HEK-GPR139 cells)
Type: cell-based
Design: expressed in transfected cells; host or cells: HEK Aequorin cells, Maxcyte transient transfection
Settings: GPR139 Agonist Activity
Classification field: enter met for Lipophilic Efficiency (logD) values not below 3, not met for values below it.

>>> group("O=c1c2c([nH]c3nc(NCc4ccccc4Cl)nn13)CCC2")
"not met"
>>> group("CC1=NNC(=O)C1CC(=O)N/N=C/c1c(Cl)cccc1Cl (centres unmarked)")
"met"
>>> group("Cc1ccc(CCC(=O)NNC(=O)CCc2ccccc2)c(Br)c1")
"not met"

Q: Quick check, Lipophilic Efficiency (logD) >= 3? `Cl.Cl.Nc1[nH]ncc1-c1ccc(NC(=O)[C@H](N)Cc2cccc(F)c2)cc1`
Ans: met

Q: Quick check, Lipophilic Efficiency (logD) >= 3? O=C(C1CC1)N1CCc2cc(S(=O)(=O)NCC3COc4ccccc4O3)ccc21 (centres unmarked)
Ans: met

Q: Quick check, Lipophilic Efficiency (logD) >= 3? O=C(CC1CCN(Cc2ccccc2O)C1=O)C1CCC(c2cccc(O)c2)C(O)C1 (centres unmarked)
Ans: met

* * *

system: parental HEK cells; assay: HEK parental Agonist Counterscreen Assay (non-transfected cells); assay type: cell-based; details: HEK Agonist Activity section
Measured Quantity: Lipophilic Efficiency (logD)

Sample answers from the record:
>>> result("Cc1ccccc1-c1nc(C[S+]([O-])CC(=O)NC(C)CCc2ccccc2)c(C)o1 (stereo not shown)")
1.11
>>> result("O=c1cc(-c2ccccc2)[nH]c2nc(OCc3cccc([N+](=O)[O-])c3)nn12")
1.72
>>> result("Cc1ccc2c(c1)-c1c(cnn1CC(=O)Nc1ccc(F)cc1)CO2")
1.72

Please find the next compound below.
Q: Requested field: Lipophilic Efficiency (logD). Item: `COc1ccc(CCNC(=O)Nc2ccc(C)cc2)cc1`
Ans: 1.38

* * *

Biological target: GPR139 (Homo sapiens)
Sequence (Q6DWJ6 1-353): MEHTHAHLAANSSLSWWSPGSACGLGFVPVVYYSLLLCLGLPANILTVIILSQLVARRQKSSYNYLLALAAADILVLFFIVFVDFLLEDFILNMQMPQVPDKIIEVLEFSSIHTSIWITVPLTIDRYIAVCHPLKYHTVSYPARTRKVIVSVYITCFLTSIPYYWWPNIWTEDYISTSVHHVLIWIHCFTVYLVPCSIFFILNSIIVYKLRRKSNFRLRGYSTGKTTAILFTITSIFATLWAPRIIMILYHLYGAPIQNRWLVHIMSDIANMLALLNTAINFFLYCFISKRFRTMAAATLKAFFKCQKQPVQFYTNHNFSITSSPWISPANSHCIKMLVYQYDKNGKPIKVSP
Test: GPR139 Antagonist titration assay (calcium detection, HEK-GPR139 cells, vs EC80 of S-JNJ-63533054)
Conditions: based on logP
We label by threshold. Values of GPR139 Antagonist Activity Lipophilic Efficiency (logP) strictly beneath 2 are Criterion met. Values of 2 and up are Criterion not met.

Consider the following illustrative entries.
>>> group("Cc1ccc(-n2cc(-c3ccccc3)nc2OCC(=O)Nc2ccccc2C)cc1")
"Criterion met"
>>> group("O=c1c(-c2ccc(Cl)cc2)c(C(F)(F)F)oc2cc(O)ccc12")
"Criterion met"
>>> group("Cc1c(-c2cccc(NC(=O)C3c4ccccc4Oc4ccccc43)c2)nc2ncccn12")
"Criterion met"
>>> group("N#CCC(=O)c1ccccc1Oc1ccc(F)cc1")
"Criterion not met"

Switching to the query record.
Q: Quick check: does `O=C(NCCC1CCCCC1)N1c2ccccc2Sc2ccccc21` have GPR139 Antagonist Activity Lipophilic Efficiency (logP) under 2?
Ans: Criterion met

* * *

Give measured Hill Slope for each item. Keep answers brief.
biological target: GPR139 (Homo sapiens); assay: GPR139 Agonist titration / agonist counterscreen assay (calcium detection, HEK-GPR139 cells); type: cell-based; set-up: expressed in transfected cells; host or cells: HEK Aequorin cells, Maxcyte transient transfection; settings: GPR139 Agonist Activity; fitted dose-response curve
One number for each entry.

Sample answers from the record:
>>> numeric_result("CCOc1nn(CC)cc1-c1nnc(SCc2ccc(C(=O)OC)cc2)n1C")
0.63
>>> numeric_result("CC1=CN=C(CCc2ccc(F)c3ccccc23)C1")
0.19
>>> numeric_result("COc1ccc(C2(C)NC(=O)C(CC(=O)NCCc3ccccc3)C2=O)cc1 (stereo not drawn)")
0.48
>>> numeric_result("COCC(=O)Oc1c(Sc2c(F)c(F)c(F)c(F)c2F)c(C)nn1C(C)(C)C")
1.02
>>> numeric_result("Cn1cnnc1SCc1ccc(F)c2ccccc12")
0.92

Batch of 3 compounds: report Hill Slope for each.
1. C=C(Nc1ccc(-c2cn[nH]c2)cc1)N(C)Cc1cccc(C(=O)CC)c1
2. CC1=NNC(=O)C1CC(=O)N/N=C/c1cccc2ccccc12 (stereo not drawn)
3. Cc1cc(CC(=O)N/C=C/c2cccc3ccccc23)n[nH]1

Ans:
[0.79, 0.75, 0.34]

Q: // lookup Hill Slope | system=GPR139 (Homo sapiens) | key= `Cc1cccc(NC(=O)Cn2ncc3c2-c2ccccc2OC3)n1`
Ans: 0.77
